Measured values drawn from patent US20150322137A1 for this set.

- target-under-test: F protein of human metapneumovirus strain JPS03-178 (type A2), on infectious virus (human metapneumovirus, strain JPS03-178 …)
- measurement-description: cell-based or functional assay
binders and their reported IC50, neutralizing activity (hMPV infection of LLC-MK2 cells; GraphPad Prism 6)
Answer format: numeric, ng/mL implied, no suffix.

# count of solved cases: 3
INSERT INTO measurements (binder, numeric_readout) VALUES
  ('EV046135 (antibody, human IgG1, lambda, V domains shown) VH: QEQLVESGGDLVKPGGSLRITCAASGFTLSGYALVWVRQAPGRGLEWIADITASSTYINYAASVKGRFTISRDNAQSSLFLQMSSLRADDTGVYFCARLPHLPGFFDLWGRGTLVSVSS VL: QSVLTQPPSVSGAPGQRVTISCTGNSSNIGAGYDVNWYQHLPGTAPKLLISVNTNRPSGVPDRFSGSMSGTSASLAITGLQAEDEADYYCQSYDRRLSGYVFGTGTKVTVLG', 31.6),
  ('EV046136 (antibody, human IgG1, kappa, V domains shown) VH: QVQLVQSGAEMKKPGASVKVSCKASGYTFTDYFIHWVRQAPGQGLEWMGWVNPNSGATNYAQKFQGRVTMTGDTSLSAAYVDLSRLSSDDSAVYYCARDRGLGISSTRNDAFDIWGQGTTVTVSS VL: DIQLTQSPSSLSASVGDRVTITCQPSQGIRNFLNWYQQKPGKAPNLLIYDASNLETGVASRFSGSGSGTHFTLTISSLQPEDIATYFCQQYHSLPLTFGGGTKVEIKR', 318),
  ('EV046113 (antibody, human IgG1, kappa, V domains shown) VH: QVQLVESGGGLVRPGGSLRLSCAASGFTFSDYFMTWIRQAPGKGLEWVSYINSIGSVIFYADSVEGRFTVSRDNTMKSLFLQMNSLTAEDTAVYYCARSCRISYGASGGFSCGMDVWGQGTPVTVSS VL: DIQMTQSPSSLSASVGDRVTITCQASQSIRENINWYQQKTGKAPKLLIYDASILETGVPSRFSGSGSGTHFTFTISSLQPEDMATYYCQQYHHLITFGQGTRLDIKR', 645);

Below: the item to evaluate.
Recorded IC50, neutralizing activity (hMPV infection of LLC-MK2 cells; GraphPad Prism 6) of EV046130 (antibody, human IgG1, lambda, V domains shown) VH: QVQLVESGGGVAQPGRSLRLSCAASGFTLSNYGMHWVRQAPGKGLEWVAVIWYDGRNKYYADSVKGRFTISRDDFKNTLDLQMNSLRAEDTAVYYCARDQHAGITMIEDWGQGTLVTVSS VL: QSALTQPPSASGSPGQSVTISCTGTSSDVGYFKYVSWYQQHPGKAPKLLIYEVSKRPSGVPDRFSGSRSGNTASLTVSGLQADDEADYYCGSYAGNNNIIFGGGTKLTVLG , please. 1950
